Can you tell me yeast fitness for the items I'm about to list?
B1: tRNA (parent)
chain: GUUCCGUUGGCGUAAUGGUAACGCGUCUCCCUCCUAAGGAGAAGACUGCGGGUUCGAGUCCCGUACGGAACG

# Variants of: B1
# experimentDescription: yeast fitness relative to wild type (ratio to wild type); higher = fitter; tRNA-Arg(CCU), competitive growth, 37 C, YPD
Variants at the floor of the assay were thinned out.
Answers are plain numbers.

Worked examples follow.
>>> numericresult("C27G G41A U64A")
0.681
>>> numericresult("A37C U59C")
0.699
>>> numericresult("U7C A70U")
0.692

# context switch: different variant, same yeast fitness
Prompt line: Which yeast fitness is reported for this variant? G12C C22U U32C
Response line: 0.692

Just for reference, the RNAGym collection of RNA variant scans (doi:10.1126/science.aae0568) is where these values come from.
